Data provenance is patent US20230322908A1.

Biological target: T1, recombinant human full-length TDP-43 (TAR DNA-binding protein 43), soluble (human, UniProt Q13148 1-414)
T1 construct: Used on Luminex beads, coated on ELISA plates, and immobilized or injected in SPR; also called FL TDP-43; TDP-43 protein
T1 sequence (Q13148 whole entry): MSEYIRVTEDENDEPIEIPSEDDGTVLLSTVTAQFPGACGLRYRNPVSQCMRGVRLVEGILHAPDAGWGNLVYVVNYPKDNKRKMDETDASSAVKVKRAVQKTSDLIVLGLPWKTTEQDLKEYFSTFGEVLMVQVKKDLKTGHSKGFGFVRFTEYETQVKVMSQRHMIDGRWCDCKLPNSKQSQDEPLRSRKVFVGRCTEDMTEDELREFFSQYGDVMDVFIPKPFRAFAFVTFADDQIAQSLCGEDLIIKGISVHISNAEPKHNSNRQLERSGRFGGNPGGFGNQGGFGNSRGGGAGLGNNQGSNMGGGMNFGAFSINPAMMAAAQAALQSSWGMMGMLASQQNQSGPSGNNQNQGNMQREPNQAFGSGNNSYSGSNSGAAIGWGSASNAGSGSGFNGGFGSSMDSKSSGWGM
Assay: indirect ELISA, coated FL TDP-43
Each record here notes measured EC50.

binder	EC50
ACI-7069-641H1-Ab2 (antibody, mouse IgG2b, V domains shown, Mouse IgG2b, kappa, from hybridoma; also called 641H1E7) VH: QVQLKESGPGLVAPSQSLSITCTVSGFSLTNYGVHWVRQPPGKGLEWLGLMWAGGSTNYNSALMSRLSISKDNSKSQVFLKMNSLQTDDTAMYYCVIYRTGFAYWGQGTLVTVSA VL: DVLMTQTPLSLPVSLGDQASISCRSSQSIVHTIGNTYLEWYLQKPGQSPKLLIYKVSNRFSGVPDRFSGSGSGTDFTLKISRVEAEDLGVYYCFQGSHVPFTFGSGTKLEIK	0.016 µg/mL
ACI-7071-809F12-Ab1 (antibody, mouse IgG2b, V domains shown, Mouse IgG2b, kappa, from hybridoma; also called 809F12D8) VH: QVQLKESGPGLVAPSQSLSITCTVSGFSLNRNGVQWVRQPPGKGLEWLGVIWPGGSTNCNSALMSRLSISKDNSKSQVFLKMNSLHTDDTGIYYCARVGGNYVWDYNNYAWGQGTLVTVSA VL: DVLMTQTPLSLPVSLGDQASISCRSSQNIVHSIGNTYLEWYLQKPGQSPKLLIYKVSNRFSGVPDRFSGSGSGTDFTLKISRVEAEDLGVYYCFQGSHVPYTFGGGTKLEIR	0.014 µg/mL
ACI-7069-634H10-Ab2 (antibody, mouse IgG2b, V domains shown, Mouse IgG2b, kappa, from hybridoma; also called 634H10H7) VH: EVQLQQSGAELVKPGASVRLSCTASGFNIKDTYMHWVKQRPEQGLEWIGRIDPANSNTKFDPKFQGKATITSDTSSNTAYLQLSSLTSEDTAVYYCARFYGGSHWYFDVWGAGTTVTVSS VL: DIKMTQSPSSMYASLGERVTITCKASQDIKSYLSWYQHKPWKSPKALIYYATSLADGVPSRFSGSGSGQDYSLTISSLESDDTATYYCLQQGESPYTFGGGTKLEIK	0.053 µg/mL
ACI-7069-642D12-Ab1 (antibody, mouse IgG2b, V domains shown, Mouse IgG2b, kappa, from hybridoma; also called 642D12B4) VH: EVQLQQSGAELVKPGASVRLSCTASGFNIKDPYMHWVRQRPKQGLEWIGRIDPADGNTKYDPKFQGKATLTADTSSNVAYLHLSSLTSEDTAVYYCARFYGSSHWYFDVWGAGTTVTVSS VL: DIKMTQSPSSMYASLGERVTITCKASQDIKRYLSWYQQKPWKSPKILIYYATSLADGVPSRFSGTGSGQDYSLTISSLESDDVATYYCLQQGESPYTFGGGTKLEIK	0.014 µg/mL
ACI-7069-636E5-Ab1 (antibody, mouse IgG2b, V domains shown, Mouse IgG2b, lambda, from hybridoma; also called 636E5B8) VH: EVHLVESGGDLVMPGGSLKLSCAASGFTFSNYGMSWVRQTPDKRLEWVATISSGGKYINYLDSLKGRFTISRDNAKNTLYLQMSSLKSEDTAMYYCAKDYGSGWAWFAYWGQGTLVTVSA VL: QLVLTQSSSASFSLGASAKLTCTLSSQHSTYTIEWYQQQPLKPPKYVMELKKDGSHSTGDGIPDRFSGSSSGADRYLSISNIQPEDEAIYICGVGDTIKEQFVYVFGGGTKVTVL	0.015 µg/mL
ACI-7071-809D9-Ab2 (antibody, mouse IgG2b, V domains shown, Mouse IgG2b, kappa, from hybridoma; also called 809D9C2) VH: QVQLQQSGAELVRPGVSVKISCKGSGYKFTDYSMHWVKQSHTKSLEWIGVISTYYGDTTYNQKFKGKATITVDKSSSTAYMELARLTSEDSAIYYCATYGNFPASFSYWGQGTLVTVSA VL: DIVMTQAAPSIPVTPGESVSISCRSSKSLLHSNGNTYLYWFLQRPGQSPQLLIYRMSNLASGVPDRFSGSGSGTAFTLRISRVEAEDVGVYYCMQHLEYPFTFGSGTKLEIK	0.017 µg/mL
ACI-7069-646B7-Ab1 (antibody, mouse IgG2b, V domains shown, Mouse IgG2b, kappa, from hybridoma; also called 646B7F7) VH: QVQLKESGPGLVAPSQSLSITCTVSGFSLTNFGVHWVRQPPGKGLEWLGIMWAGGSTNYNSALMSRLSISKDNSKSQVFLKMNSLQTDDTAMYYCVIYKTGFAYWGQGTLVTVSA VL: DVLMTQTPLSLPVSLGDQASISCRSSQSIVHAIGNTYLEWYLQKPGQSPKLLIYKVSNRFSGVPDRFSGSGSGTDFTLKISRVEAEDLGVYYCFQGSHVPFTFGSGTKLEIK	0.011 µg/mL
